Compiled record: Ki values for 5-hydroxytryptamine receptor 1A (Rattus norvegicus, UniProt P19327) across several sources.
property: Ki (nM)

>>> reading("Cn1c(=O)sc2cc(CCCCN3CCN(Cc4ccccc4)CC3)ccc21")
40
>>> reading("O=C1C2CC=CCC2C(=O)N1C1CCC(N2CCN(c3cccc(C(F)(F)F)c3)CC2)CC1 (stereo not given)")
1.5
>>> reading("COc1cccc(OC)c1OCCNC[C@@H]1COc2cc3c(cc2O1)CCCC3")
501
>>> reading("O=c1c2cnc3ccccc3c2ncn1CCCCN1CCN(c2ccccc2F)CC1")
63
>>> reading("O=C(c1ccc(Cl)c(Cl)c1)N1CCC(CNCc2cccc(-c3ccc[nH]3)n2)CC1")
6.03
>>> reading("O=S(=O)(c1cccs1)N1CCC(CN2CCC(c3noc4cc(F)ccc34)CC2)CC1")
165
>>> reading("Fc1ccccc1OC(CCN1CCN(c2nsc3ccccc23)CC1)c1ccccc1 (stereo not given)")
70.2
>>> reading("CCc1cc(=O)oc2cc(OCCCCN3CCC(c4noc5cc(F)ccc45)CC3)ccc12")
1470
>>> reading("Cc1[nH]c2ccccc2c1C1CCN(CCCCn2c(=O)c(-c3ccccc3)c3n(c2=O)CCCC3)CC1")
1400

* * *

The entries below pair compounds with log10(Ki) values for 5-hydroxytryptamine receptor 1A (Rattus norvegicus, UniProt P19327), as found in several publications.
property: log10(Ki) (log10 of the value in nM)

>>> reading("COc1ccccc1N1CCN(Cc2cn(-c3ccccn3)c3ccccc23)CC1")
1.74
>>> reading("CC1CC2(C)CC(=O)C1C1C(=O)N(OCCCN3CCN(c4ccccc4F)CC3)C(=O)C12 (stereo unspecified)")
2.52
>>> reading("O=C1NC2(CCCc3ccccc32)C(=O)N1CCCN1CCN(c2ccccc2)CC1 (racemic)")
1.94
>>> reading("Cl.O=C1C2CCCCN2C(=O)CN1CCCN1CCN(c2cccc(C(F)(F)F)c2)CC1 (stereo unspecified)")
2.33
>>> reading("COc1ccccc1N1CCN(CCCn2cnc3c(cnc4ccc(C)cc43)c2=O)CC1")
1.41
>>> reading("COc1cccc(C2CCC(NCCOc3ccccn3)CC2)c1 (stereo in doubt)")
1.23
>>> reading("CN(c1ncccn1)[C@H]1CC[C@H](CCN2CCN(c3ccccc3)CC2)CC1")
0.67
>>> reading("c1ccc(N2CCN(Cc3cn(-c4cccnc4)c4ccccc34)CC2)cc1")
2.28
>>> reading("COc1ccccc1N1CCN(CCCOc2cccc3ccccc23)CC1")
0.95
>>> reading("CCOc1ccccc1OCCNCCCCN1C(=O)C2CCCN2C1=O.Cl (stereo unspecified)")
0.36
>>> reading("COc1ccccc1N1CCN(CCCc2ccc3c(c2)sc(=O)n3CCN2CCC(C(=O)c3ccc(F)cc3)CC2)CC1")
0.48
>>> reading("c1ccc(N2CCN(CCCOc3ccc(-c4nc5ccccc5o4)cc3)CC2)nc1")
3.30
>>> reading("O=C(CCCN1CCC(c2noc3cc(F)ccc23)CC1)c1cc2c3c(c1)CCN3C(=O)CC2")
1.08
>>> reading("COc1ccccc1N1CCN(CCCCCn2c(=O)[nH]c3ccccc32)CC1")
1.52
>>> reading("O=C(NCCCN1CCN(c2cccc3ccccc23)CC1)c1ccccn1")
1.64
>>> reading("Cc1cccc(N2CCN(CCCCCCN3CCN(c4ccccc4)CC3)CC2)c1")
1.28
>>> reading("O=c1oc2cc(OCCCCN3CCN(c4ccc(F)cc4)CC3)ccc2c2c1CCC2")
1.46
>>> reading("c1cnc(N[C@H]2CC[C@H](CCN3CCN(c4ccncc4)CC3)CC2)nc1")
2.86
>>> reading("c1ccc(N2CCN(C[C@H]3CC[C@H](Nc4ncccn4)CC3)CC2)cc1")
1.61
>>> reading("CC(C)Oc1ccccc1OCCNCc1cccc(-c2ccsc2)c1")
1.54

* * *

Below are Ki values for 5-hydroxytryptamine receptor 1A (Rattus norvegicus) collected from several publications.
Lab note - cut at 20 nM for Ki: class 1 if strictly below, class 0 if not.

>>> assigned_label("COc1cccc(OC)c1OCCNC[C@@H]1COc2cccc(O)c2O1")
"class 1"
>>> assigned_label("CCCCC(=O)NCCCCN1CCN(c2ccccc2OC)CC1")
"class 1"
>>> assigned_label("COc1ccccc1N1CCN(CCn2c(=O)[nH]c3cc(-c4ccco4)[nH]c3c2=O)CC1")
"class 0"
>>> assigned_label("CC(C)Oc1ccccc1OCCNCc1cccc(C2CCCC2)c1")
"class 1"
>>> assigned_label("COc1ccccc1N1CCN(CCCn2c(=O)[nH]c3cc(-c4ccc(C)cc4)[nH]c3c2=O)CC1")
"class 0"
>>> assigned_label("COc1ccccc1N1CCN(CCCCNC(=O)c2sccc2C)CC1")
"class 1"
>>> assigned_label("CN1CCN(c2nccc(-c3ccco3)n2)CC1")
"class 0"
>>> assigned_label("COc1cccc2c1CCN(CCN1CCN(c3ccc(Cl)cc3)CC1)C2=O")
"class 0"
>>> assigned_label("O=c1oc2c(Cl)c(OCCCCN3CCC(c4noc5cc(F)ccc45)CC3)ccc2c2c1CCC2")
"class 1"
>>> assigned_label("COc1cccc2c1CCCC2CCCN1CCN(Cc2ccccc2)CC1 (stereo unspecified)")
"class 1"
>>> assigned_label("O=c1ccc2ccc(OCCCN3CCN(c4ccccc4)CC3)cc2o1")
"class 1"

* * *

Please find below pKi measurements for 5-hydroxytryptamine receptor 1A (Rattus norvegicus), combined from several publications.
target-or-system: 5-hydroxytryptamine receptor 1A (Rattus norvegicus)
Sequence (P19327 whole entry): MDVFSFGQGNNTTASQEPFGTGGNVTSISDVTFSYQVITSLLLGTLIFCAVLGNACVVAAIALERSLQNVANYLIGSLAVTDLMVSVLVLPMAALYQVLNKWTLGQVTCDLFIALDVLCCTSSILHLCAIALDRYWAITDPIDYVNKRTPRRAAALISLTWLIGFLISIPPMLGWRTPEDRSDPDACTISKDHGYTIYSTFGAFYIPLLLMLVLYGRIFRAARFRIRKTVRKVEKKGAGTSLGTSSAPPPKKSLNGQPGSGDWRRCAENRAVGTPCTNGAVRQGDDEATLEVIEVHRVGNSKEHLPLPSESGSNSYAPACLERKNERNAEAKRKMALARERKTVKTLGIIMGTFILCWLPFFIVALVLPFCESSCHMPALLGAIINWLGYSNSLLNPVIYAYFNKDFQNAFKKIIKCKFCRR
pKi: −log10 of the molar value.
property: pKi

>>> reading("O=c1ccc(OCCCN2CCN(c3csc4ccccc34)CC2)nn1-c1ccc(Cl)c(Cl)c1")
6.01
>>> reading("O=C1C2CCCN2C(=O)N1CCCCCCNCC1CCc2ccccc2O1 (stereo not given)")
8.23
>>> reading("Cc1cccc(N2CCN(CCNC(=O)c3ccccn3)CC2)c1C")
6.67
>>> reading("Cc1ccc(C(=O)N2CCC(CNCc3cccc(-n4cccn4)n3)CC2)cc1Cl")
8.85
>>> reading("COc1ccccc1N1CCN(CCNC(=O)c2ccccn2)CC1")
6.22
>>> reading("CN1CCc2ccc(OCCCN3CCN(c4cccc(Cl)c4Cl)CC3)cc2C1=O")
7.70
>>> reading("O=c1c(-c2ccc(F)cc2)c2n(c(=O)n1CCCCN1CCC(c3c[nH]c4ccccc34)CC1)CCCC2")
7.21
>>> reading("COc1ccccc1N1CCN(Cc2ccc(CN3C(=O)c4ccccc4C3=O)o2)CC1")
8.72
>>> reading("O=C(c1ccc(Cl)c(Cl)c1)N1CCC(CNCCc2cccnc2)CC1")
6.03

* * *

target-or-system: 5-hydroxytryptamine receptor 1A (Rattus norvegicus)
Sequence (P19327 whole entry): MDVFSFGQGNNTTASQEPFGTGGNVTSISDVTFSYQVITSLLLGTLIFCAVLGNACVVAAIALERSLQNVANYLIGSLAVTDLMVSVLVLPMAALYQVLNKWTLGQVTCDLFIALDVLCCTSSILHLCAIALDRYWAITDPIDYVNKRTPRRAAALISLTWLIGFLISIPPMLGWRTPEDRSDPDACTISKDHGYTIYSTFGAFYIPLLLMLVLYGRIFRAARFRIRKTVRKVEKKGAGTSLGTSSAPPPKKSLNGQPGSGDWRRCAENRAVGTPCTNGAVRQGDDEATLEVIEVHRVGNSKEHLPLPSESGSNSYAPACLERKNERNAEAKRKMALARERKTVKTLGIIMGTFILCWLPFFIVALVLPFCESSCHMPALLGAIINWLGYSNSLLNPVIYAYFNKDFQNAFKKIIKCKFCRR
Several reports have described Ki for 5-hydroxytryptamine receptor 1A (Rattus norvegicus); a selection of those results is presented here.
property: Ki (nM)

>>> reading("O=C1c2ccccc2C(=O)N1CCCCN1CCN(c2ccccc2[N+](=O)[O-])CC1")
4
>>> reading("O=C(CCCN1CCN(c2nsc3ccccc23)CC1)c1cc2c3c(c1)CCN3C(=O)CC2")
31.8
>>> reading("Cc1c(OCCCN2CCC(c3noc4cc(F)ccc34)CC2)nn(-c2ccc(Cl)c(Cl)c2)c(=O)c1C")
121
>>> reading("O=C(c1ccc(F)c(Cl)c1)N1CCC(F)(CNCc2ccc(C(F)F)cn2)CC1")
3.8
>>> reading("Cl.O=C1C2C3C=CC(C4CCC34)C2C(=O)N1CCCCN1CCN(c2ncccn2)CC1 (stereo not given)")
1.3
>>> reading("COc1ccccc1-c1c2n(c(=O)n(CCCCN3CCC(c4c[nH]c5ccccc45)CC3)c1=O)CCCC2")
19.9
>>> reading("Cc1cc(=O)oc2cc(OCCCCN3CCN(c4cccc(C(F)(F)F)c4)CC3)ccc12")
15.6
>>> reading("O=C1C2CCCN2C(=O)N1CN1CCN(c2cccc3[nH]cnc23)CC1 (stereo not given)")
4.1
>>> reading("O=C1C2CCCCN2C(=O)N1CN1CCN(c2cccc3c2COCCO3)CC1 (stereo not given)")
6.1
>>> reading("COc1ccc(CCCCNCCOc2cc(Cl)cc3c2OCCC3)cc1")
1.29
>>> reading("CC(C)NCC(O)COc1ccc(CCOCCOC(C)C)cc1 (stereo not given)")
10000
>>> reading("CN1CCc2ccc3oc(=O)c4cccc5c4c3c2[C@H]1C5")
1150
>>> reading("CCCN(CCC)C1COc2c(cccc2-c2ccc(OC)cc2)C1 (stereo not given)")
1.3
>>> reading("COc1ccc(CCCCNCCOc2cc(F)cc3c2OC(C)CC3)cc1 (stereo not given)")
0.27
>>> reading("O=C(N[C@H]1CCN(CCc2ccccc2)C1)c1ccccc1")
370
>>> reading("O=C(NCCN1CCN(c2cccc(Cl)c2)CC1)[C@@H]1CCCN1C(=O)c1ccccc1")
1950
>>> reading("CCCN(CCCCN1C(=O)CC2(CCCC2)CC1=O)C1COc2cccc(O)c2C1 (stereo in doubt; 258)")
0.501
>>> reading("c1ccc2c(c1)OCC(CNCC1CCN(c3cccc4c3OCCO4)CC1)O2 (stereo not given)")
18
>>> reading("CC1(c2ccccc2)NC(=O)N(CCCN2CCN(c3cccc(Cl)c3)CC2)C1=O (racemic)")
29
